System: E. faecalis JH2-2
PROTOCOL DETAILS: microbe, parasite or virus in culture
Type: cell-based
CONDITION SET: Enterococcus faecalis, JH22; Table 1; E. faecalis JH2-2; broth microdilution; read-out: MIC
Protocol: Bacterial strains and growth conditions: All Gram-negative and Gram-positive bacterial strains (Supplementary Table S8) were cultured in Luria-Bertani (LB) or trypticase soy broth (TSB) agar plates, respectively, and incubated overnight at 37 °C unless specifically indicated. A single colony of the tested bacterial strains was inoculated into medium broth with shaking at 220 rpm for further experiments. […]
Entries and their measured MIC follow.
Give the number; µg/mL is assumed, so skip it.

In the examples that follow, each entry is paired with its recorded MIC.
**Query** Write down the reported MIC of CNC(C)C1CCC(N)C(OC2C(N)CC(N)C(OC3OCC(C)(O)C(NC)C3O)C2O)O1 (centres unmarked) , test system: E. faecalis JH2-2.
**Result** 4

**Query** Can you handle CC1(C)S[C@@H]2[C@H](NC(=O)[C@H](N)c3ccccc3)C(=O)N2[C@H]1C(=O)O next?
**Result** 16

**Query** Can you handle C[C@H]1c2cccc(O)c2C(=O)C2=C(O)[C@]3(O)C(=O)C(C(N)=O)=C(O)[C@@H](N(C)C)[C@@H]3[C@@H](O)[C@@H]21 next?
**Result** 4

Lab note: next compound to report on.
**Query** Write down the reported MIC of CCC[C@@H]1C[C@@H](C(=O)N[C@@H]([C@H]2O[C@H](SC)[C@H](O)[C@@H](O)[C@H]2O)[C@H](C)Cl)N(C)C1 , test system: E. faecalis JH2-2.
**Result** 0.5
